protocol: Oral bioavailability in rat at 1 mg/kg, iv and 2 mg/kg, po
Type: ADME, organism-based
assaySetup: in vivo
reportedEndpoint: bioavailability (%)

# example entries with known answers
{"smilesString": "C[C@H](c1nc(-c2ccc(Cl)cc2Cl)no1)[C@H](N)C(=O)N1CCCC1.O=C(O)C(F)(F)F", "readoutNumber": 35}
{"smilesString": "CS(=O)(=O)c1ccc(-c2noc([C@@H](CC3CC3)[C@H](N)C(=O)N3CC[C@H](F)C3)n2)c(F)c1.O=C(O)C(F)(F)F", "readoutNumber": 36}

[1] CS(=O)(=O)c1ccc(-c2noc([C@@H](CC3CC3)[C@H](N)C(=O)N3CC[C@H](F)C3)n2)cc1.O=C(O)C(F)(F)F
[2] C[C@H](c1nc(-c2ccc(S(C)(=O)=O)cc2Cl)no1)[C@H](N)C(=O)N1CCCC1
input: Compare 1 and 2 by numeric bioavailability and name the larger one. API: response body contains the label of the selected item.
output: 1

* * *

protocol: Plasma clearance in rat at 1 mg/kg, iv and 2 mg/kg, po
Type: ADME, organism-based
reportedEndpoint: clearance (mL/min/kg)

{"smilesString": "C[C@H](c1nc(-c2ccc(Cl)cc2Cl)no1)[C@H](N)C(=O)N1CCCC1.O=C(O)C(F)(F)F", "unitLabel": "mL/min/kg", "clearance": 13.8}
{"smilesString": "CS(=O)(=O)c1ccc(-c2noc([C@@H](CC3CC3)[C@H](N)C(=O)N3CC[C@H](F)C3)n2)cc1.O=C(O)C(F)(F)F", "unitLabel": "mL/min/kg", "clearance": 11.2}

[1] C[C@H](c1nc(-c2ccc(S(C)(=O)=O)cc2Cl)no1)[C@H](N)C(=O)N1CCCC1
[2] CS(=O)(=O)c1ccc(-c2noc([C@@H](CC3CC3)[C@H](N)C(=O)N3CC[C@H](F)C3)n2)c(F)c1.O=C(O)C(F)(F)F
input: Two entries are listed, 1 and 2 . Which one carries the higher clearance? // output: label of the selected item
output: 2
(2: 18.7 mL/min/kg, 1: 6 mL/min/kg)

* * *

measuredOn: Dipeptidyl peptidase 4 (Homo sapiens, UniProt P27487)
Sequence (P27487 whole entry): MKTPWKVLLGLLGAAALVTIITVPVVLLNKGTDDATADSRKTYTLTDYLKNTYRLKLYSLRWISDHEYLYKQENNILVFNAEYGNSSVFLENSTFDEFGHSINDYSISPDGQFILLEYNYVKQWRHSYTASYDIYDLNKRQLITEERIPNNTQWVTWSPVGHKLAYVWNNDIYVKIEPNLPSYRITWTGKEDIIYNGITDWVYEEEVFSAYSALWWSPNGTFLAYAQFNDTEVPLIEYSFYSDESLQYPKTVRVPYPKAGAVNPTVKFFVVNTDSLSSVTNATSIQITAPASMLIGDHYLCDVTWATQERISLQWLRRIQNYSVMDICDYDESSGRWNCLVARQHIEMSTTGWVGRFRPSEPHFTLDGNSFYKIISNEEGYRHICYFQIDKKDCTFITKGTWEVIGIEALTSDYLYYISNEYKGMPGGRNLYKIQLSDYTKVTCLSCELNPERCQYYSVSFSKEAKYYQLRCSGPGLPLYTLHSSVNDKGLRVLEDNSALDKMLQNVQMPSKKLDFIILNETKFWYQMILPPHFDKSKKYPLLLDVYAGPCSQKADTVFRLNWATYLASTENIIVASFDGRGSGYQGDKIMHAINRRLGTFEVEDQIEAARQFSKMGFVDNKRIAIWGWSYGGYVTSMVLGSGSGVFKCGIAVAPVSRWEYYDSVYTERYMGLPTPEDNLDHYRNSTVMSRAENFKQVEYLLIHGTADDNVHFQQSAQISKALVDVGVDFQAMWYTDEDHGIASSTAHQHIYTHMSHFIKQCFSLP
reportedEndpoint: IC50 (nM)

Below, 5 compounds whose answers are already recorded.
{"smilesString": "C[C@H](c1nc(-c2ccccc2F)no1)[C@H](N)C(=O)N1CCCC1", "measuredOn": "Dipeptidyl peptidase 4 (Homo sapiens, UniProt P27487)", "reportedEndpoint": "IC50", "readoutNumber": 4790}
{"smilesString": "C[C@H](c1nc(-c2cccc(C(F)(F)F)c2)no1)[C@H](N)C(=O)N1CCCC1", "measuredOn": "Dipeptidyl peptidase 4 (Homo sapiens, UniProt P27487)", "reportedEndpoint": "IC50", "readoutNumber": 15600}
{"smilesString": "C[C@H](c1nc(-c2ccc(NS(C)(=O)=O)cc2Cl)no1)[C@H](N)C(=O)N1CC[C@@H](F)C1", "measuredOn": "Dipeptidyl peptidase 4 (Homo sapiens, UniProt P27487)", "reportedEndpoint": "IC50", "readoutNumber": 19}
{"smilesString": "C[C@H](c1nc(-c2ccc(NS(C)(=O)=O)cc2Cl)no1)[C@H](N)C(=O)N1CCCC1", "measuredOn": "Dipeptidyl peptidase 4 (Homo sapiens, UniProt P27487)", "reportedEndpoint": "IC50", "readoutNumber": 8}
{"smilesString": "C[C@H](c1nc(-c2ccc(C(F)(F)F)cc2)no1)[C@H](N)C(=O)N1CCCC1", "measuredOn": "Dipeptidyl peptidase 4 (Homo sapiens, UniProt P27487)", "reportedEndpoint": "IC50", "readoutNumber": 1610}

[a] C[C@H](c1nc(-c2ccc(F)cc2Cl)no1)[C@H](N)C(=O)N1CCCC1
[b] C[C@H](c1nc(-c2cc(Cl)cc(Cl)c2)no1)[C@H](N)C(=O)N1CCCC1
[c] C[C@H](c1nc(-c2ccc(NS(C)(=O)=O)cc2Cl)no1)[C@H](N)C(=O)N1CC[C@H](F)C1
[d] C[C@H](c1nc(-c2ccccc2OC(F)(F)F)no1)[C@H](N)C(=O)N1CCCC1
input: List these items ordered by IC50, big to small. Write the labels out in the order the request specifies.
output: d, b, a, c
(d: 12400 nM, b: 7360 nM, a: 830 nM, c: 19 nM)

* * *

protocol: Half life in rat at 1 mg/kg, iv and 2 mg/kg, po
Format: ADME, organism-based
assaySetup: in vivo
reportedEndpoint: half-life (h)

{"smilesString": "CS(=O)(=O)c1ccc(-c2noc([C@@H](CC3CC3)[C@H](N)C(=O)N3CC[C@H](F)C3)n2)c(F)c1.O=C(O)C(F)(F)F", "unitLabel": "h", "readoutNumber": 1.3}

[I] CS(=O)(=O)c1ccc(-c2noc([C@@H](CC3CC3)[C@H](N)C(=O)N3CC[C@H](F)C3)n2)cc1.O=C(O)C(F)(F)F
[II] C[C@H](c1nc(-c2ccc(Cl)cc2Cl)no1)[C@H](N)C(=O)N1CCCC1.O=C(O)C(F)(F)F
[III] C[C@H](c1nc(-c2ccc(S(C)(=O)=O)cc2Cl)no1)[C@H](N)C(=O)N1CCCC1
input: Give the ascending ranking of the items by reported half-life. Field: ranking. Enter the labels in the order requested.
output: III, I, II
(III: 0.82 h, I: 1.8 h, II: 2.71 h)

* * *

measuredOn: Dipeptidyl peptidase 4 (Homo sapiens, UniProt P27487)
reportedEndpoint: IC50 (nM)

{"smilesString": "C[C@H](c1nc(-c2ccc(S(C)(=O)=O)cc2F)no1)[C@H](N)C(=O)N1CCCC1", "IC50 (nM)": 43}

[I] C[C@H](c1nc(-c2ccc(S(=O)(=O)C(F)(F)F)cc2)no1)[C@H](N)C(=O)N1CCCC1
[II] C[C@H](c1nc(-c2ccc(S(N)(=O)=O)cc2)no1)[C@H](N)C(=O)N1CCCC1
[III] C[C@H](c1nnc(-c2ccc(Cl)cc2Cl)o1)[C@H](N)C(=O)N1CCCC1
input: Rank items: key IC50, increasing. Sort and list the labels as requested.
output: II, I, III
(II: 190 nM, I: 330 nM, III: 560 nM)

* * *

Listed here: molecules with reported IC50 for Voltage-gated inwardly rectifying potassium channel KCNH2 (Homo sapiens, UniProt Q12809).
Expressed in µM, but write only the number.

{"smilesString": "CS(=O)(=O)c1ccc(-c2noc([C@@H](CC3CC3)[C@H](N)C(=O)N3CC[C@H](F)C3)n2)c(F)c1.O=C(O)C(F)(F)F", "IC50 (µM)": 58.5}

# next molecule below
Entry C[C@H](c1nc(-c2ccc(Cl)cc2Cl)no1)[C@H](N)C(=O)N1CCCC1.O=C(O)C(F)(F)F under Voltage-gated inwardly rectifying potassium channel KCNH2 (Homo sapiens, UniProt Q12809) had IC50 of 36.7

* * *

protocol: Half life in dog
Type: ADME, organism-based, Canis lupus familiaris
assaySetup: in vivo
reportedEndpoint: half-life (h)
All answers are understood in h, so give the number only.

Lab note: CS(=O)(=O)c1ccc(-c2noc([C@@H](CC3CC3)[C@H](N)C(=O)N3CC[C@H](F)C3)n2)c(F)c1.O=C(O)C(F)(F)F gave half-life of 1.75

* * *

Here's a batch of compounds along with measured IC50 for Dipeptidyl peptidase 2 (Homo sapiens, UniProt Q9UHL4).
reportedEndpoint: IC50 (µM)

{"smilesString": "C[C@H](c1nc(-c2ccc(NS(C)(=O)=O)cc2Cl)no1)[C@H](N)C(=O)N1CCC(F)(F)C1", "IC50 / µM": 0.16}

[1] C[C@H](c1n[nH]c(-c2ccc(Cl)cc2Cl)n1)[C@H](N)C(=O)N1CCCC1
[2] CS(=O)(=O)c1ccc(-c2noc([C@@H](CC3CC3)[C@H](N)C(=O)N3CC[C@H](F)C3)n2)cc1.O=C(O)C(F)(F)F
input: Parameter metric = IC50. Return the lower-valued option from 1 and 2 . Select an item and report its label.
output: 1
(1: 5.41 µM, 2: 20.4 µM)

* * *

pIC50: −log10 of the molar value.
The following compounds have recorded pIC50 on Dipeptidyl peptidase 2 (Homo sapiens, UniProt Q9UHL4).
reportedEndpoint: pIC50

Guide cases for pIC50, answers given:
{"smilesString": "C[C@H](c1nc(-c2ccccc2C(F)F)no1)[C@H](N)C(=O)N1CCCC1", "pIC50": 6.00}
{"smilesString": "C[C@H](c1noc(-c2ccc(Cl)cc2Cl)n1)[C@H](N)C(=O)N1CCCC1", "pIC50": 5.38}
{"smilesString": "C[C@H](c1nc(-c2ccc(Cl)cc2)no1)[C@H](N)C(=O)N1CCCC1", "pIC50": 5.42}
{"smilesString": "C[C@H](c1nc(-c2ccccc2)no1)[C@H](N)C(=O)N1CCCC1", "pIC50": 5.24}

[I] C[C@H](c1nc(-c2ccc(NS(C)(=O)=O)cc2)no1)[C@H](N)C(=O)N1CCCC1
[II] C[C@H](c1nc(-c2ccc(Br)cc2Cl)no1)[C@H](N)C(=O)N1CCCC1
input: Name the one with the greater pIC50 value, either I or II as given. Returns: label corresponding to the selected item.
output: II
(II: 5.89, I: 5.27)
